biological target: ADCK3 (human) (UniProt Q8NI60); experiment: KINOMEscan competition binding; details: compound 10.0 µM
Sequence (Q8NI60 whole entry, looked up): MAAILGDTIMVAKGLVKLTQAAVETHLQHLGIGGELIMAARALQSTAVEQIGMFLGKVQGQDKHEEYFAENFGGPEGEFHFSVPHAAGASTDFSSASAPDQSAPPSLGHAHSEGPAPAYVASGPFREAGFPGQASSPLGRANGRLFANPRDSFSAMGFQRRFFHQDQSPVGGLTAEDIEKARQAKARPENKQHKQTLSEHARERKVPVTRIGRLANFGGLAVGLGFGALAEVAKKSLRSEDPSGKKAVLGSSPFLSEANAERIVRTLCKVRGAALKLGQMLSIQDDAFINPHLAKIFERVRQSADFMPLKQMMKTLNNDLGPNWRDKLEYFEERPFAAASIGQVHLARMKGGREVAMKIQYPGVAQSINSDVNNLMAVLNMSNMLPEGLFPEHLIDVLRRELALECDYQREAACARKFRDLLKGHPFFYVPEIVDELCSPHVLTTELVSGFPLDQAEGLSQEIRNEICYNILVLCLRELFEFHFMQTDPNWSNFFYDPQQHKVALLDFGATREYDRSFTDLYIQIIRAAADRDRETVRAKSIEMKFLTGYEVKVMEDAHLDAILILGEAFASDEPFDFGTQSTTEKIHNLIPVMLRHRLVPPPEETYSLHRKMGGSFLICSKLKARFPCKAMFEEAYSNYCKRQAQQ
Simple rule here: kinase still bound, per cent of control less than 90% is yes, otherwise no.

Examples from the recorded data:
C=CC(=O)Nc1ccc(C(=O)c2sc(Nc3ccc(N4CCN(C)CC4)cc3OC)nc2N)cc1 : yes
COc1cc2ncnc(Nc3cccc(Cl)c3)c2cc1OC : yes
CCN(CCO)CCCOc1ccc2c(Nc3cc(CC(=O)Nc4cccc(F)c4)[nH]n3)ncnc2c1 : yes
N#Cc1cc(-c2ccnc(Nc3ccc(-n4cnc(-c5cccnc5)n4)cc3)n2)cc(N2CCOCC2)c1 : yes
O=c1[nH]c2ccccc2n1C1CCN(Cc2ccc(-c3nc4cc5[nH]cnc5cc4nc3-c3ccccc3)cc2)CC1 : no
CCc1nc(-c2cccc(C)c2)c(-c2ccnc(NC(=O)c3ccccc3)c2)s1 : yes
COc1cc(C)c(Sc2cnc(NC(=O)c3ccc(CNC(C)C(C)C)cc3)s2)cc1C(=O)N1CCN(C(C)=O)CC1 (stereo not drawn) : no
CC(=O)c1c(C)c2cnc(Nc3ccc(N4CCNCC4)cn3)nc2n(C2CCCC2)c1=O : yes

Is kinase still bound, per cent of control of CCN1CCN(Cc2ccc(NC(=O)c3ccc(C)c(/C=C/c4cnc5[nH]ccc5c4OC)c3)cc2C(F)(F)F)CC1 strictly below 90%?
no

Record: CC1=C(C(=O)Nc2cc3cn[nH]c3cc2F)C(c2ccc(C(F)(F)F)cc2)CC(=O)N1 (stereo not drawn)
yes

Record: CNC(=O)Nc1ccc(-c2nc(N3CC4CCC(C3)O4)c3cnn(C4CCC5(CC4)OCCO5)c3n2)cc1
yes

Cited source: the kinase profiling compilation of Christmann-Franck et al. (2016)
